Molecular target: GlcNAc(b1-6)Gal(b1-4)GlcNAc
Assay: glycan array binding signal (z-score within array); higher = stronger binding
Settings: glycan notation: IUPAC condensed, linker removed
The full list was thinned out, with the strongest signals kept by preference.
quantity.kind: glycan array binding signal (z-score)
Form rule: numeric answer, no unit written next to it.

Give the value of glycan array binding signal (z-score) reported for the following: Epa21 (Candida glabrata) (protein) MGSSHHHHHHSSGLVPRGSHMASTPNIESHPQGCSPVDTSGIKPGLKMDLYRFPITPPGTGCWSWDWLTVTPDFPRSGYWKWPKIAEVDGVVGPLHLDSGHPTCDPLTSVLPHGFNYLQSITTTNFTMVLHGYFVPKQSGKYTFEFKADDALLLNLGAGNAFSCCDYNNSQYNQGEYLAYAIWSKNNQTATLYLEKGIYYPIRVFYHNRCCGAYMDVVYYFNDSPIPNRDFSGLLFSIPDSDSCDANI
0.013
